// provenance: the supplement of paper PMC11246515

Reported values of total protein half-life in vivo for individual entries
# protocol.description: total protein half-life in vivo (active degradation + dilution); higher = more stable protein
# particulars: wild type E. coli NCM3722; growth: C-lim chemostat; doubling time 3 h
Number first, unit second.

Known total protein half-life in vivo results, listed for orientation:
INSERT INTO results (sequence_data, measured_attribute, value_observed) VALUES
  ('MQFSKMHGLGNDFMVVDAVTQNVFFSPELIRRLADRHLGVGFDQLLVVEPPYDPELDFHYRIFNADGSEVAQCGNGARCFARFVRLKGLTNKRDIRVSTANGRMVLTVTDDDLVRVNMGEPNFEPSAVPFRANKAEKTYIMRAAEQTILCGVVSMGNPHCVIQVDDVDTAAVETLGPVLESHERFPERANIGFMQVVKREHIRLRVYERGAGETQACGSGACAAVAVGIQQGLLAEEVRVELPGGRLDIAWKGPGHPLYMTGPAVHVYDGFIHL [P0A6K1]', 'total protein half-life in vivo', '3.44 h'),
  ('MRLDKFIAQQLGVSRAIAGREIRGNRVTVDGEIVRNAAFKLLPEHDVAYDGNPLAQQHGPRYFMLNKPQGYVCSTDDPDHPTVLYFLDEPVAWKLHAAGRLDIDTTGLVLMTDDGQWSHRITSPRHHCEKTYLVTLESPVADDTAEQFAKGVQLHNEKDLTKPAVLEVITPTQVRLTISEGRYHQVKRMFAAVGNHVVELHRERIGGITLDADLAPGEYRPLTEEEIASVV [P0AA43]', 'total protein half-life in vivo', '3 h');

Problem: Find the recorded total protein half-life in vivo belonging to MTMNSFERRNKIIQLVNEQGTVLVQDLAGVFAASEATIRADLRFLEQKGVVTRFHGGAAKIMSGNSETETQEVGFKERFQLASAPKNRIAQAAVKMIHEGMTDPTHVIWTQA and report it.
Result: 2.9 h

---

# protocol.description: total protein half-life in vivo (active degradation + dilution); higher = more stable protein
# particulars: E. coli NCM3722 delta-clpP; growth: N-lim chemostat; doubling time 6 h
measured.attribute: total protein half-life in vivo (h)
Answer format: numeric, h implied, no suffix.

Problem: Sample MTEPLKPRIDFDGPLEVDQNPKFRAQQTFDENQAQNFAPATLDEAQEEEGQVEAVMDAALRPKRSLWRKMVMGGLALFGASVVGQGVQWTMNAWQTQDWVALGGCAAGALIIGAGVGSVVTEWRRLWRLRQRAHERDEARDLLHSHGTGKGRAFCEKLAQQAGIDQSHPALQRWYASIHETQNDREVVSLYAHLVQPVLDAQARREISRSAAESTLMIAVSPLALVDMAFIAWRNLRLINRIATLYGIELGYYSRLRLFKLVLLNIAFAGASELVREVGMDWMSQDLAARLSTRAAQGIGAGLLTARLGIKAMELCRPLPWIDDDKPRLGDFRRQLIGQVKETLQKGKTPSEK [P0A8R7] — what was its total protein half-life in vivo?
Result: 5.1

---

# protocol.description: total protein half-life in vivo (active degradation + dilution); higher = more stable protein
# particulars: wild type E. coli NCM3722; growth: C-lim chemostat; doubling time 12 h
Mark False for total protein half-life in vivo values under 10 h, and True for everything at or above.

Problem: Does MNMKKLATLVSAVALSATVSANAMAKDTIALVVSTLNNPFFVSLKDGAQKEADKLGYNLVVLDSQNNPAKELANVQDLTVRGTKILLINPTDSDAVGNAVKMANQANIPVITLDRQATKGEVVSHIASDNVLGGKIAGDYIAKKAGEGAKVIELQGIAGTSAARERGEGFQQAVAAHKFNVLASQPADFDRIKGLNVMQNLLTAHPDVQAVFAQNDEMALGALRALQTAGKSDVMVVGFDGTPDGEKAVNDGKLAATIAQLPDQIGAKGVETADKVLKGEKVQAKYPVDLKLVVKQ have a reported total protein half-life in vivo of at least 10 h?
Result: False

Problem: Okay, and MKTMLAAYLPGNSTVDLREVAVPTPGINQVLIKMKSSGICGSDVHYIYHQHRATAAAPDKPLYQGFINGHEPCGQIVAMGQGCRHFKEGDRVLVYHISGCGFCPNCRRGFPISCTGEGKAAYGWQRDGGHAEYLLAEEKDLILLPDALSYEDGAFISCGVGTAYEGILRGEVSGSDNVLVVGLGPVGMMAMMLAKGRGAKRIIGVDMLPERLAMAKQLGVMDHGYLATTEGLPQIIAELTHGGADVALDCSGNAAGRLLALQSTADWGRVVYIGETGKVEFEVSADLMHHQRRIIGSWVTSLFHMEKCAHDLTDWKLWPRNAITHRFSLEQAGDAYALMASGKCGKVVINFPD ?
Result: False

Problem: Continue with MKNSKAILQVPGTMKIISAEIPVPKEDEVLIKVEYVGICGSDVHGFESGPFIPPKDPNQEIGLGHECAGTVVAVGSRVRKFKPGDRVNIEPGVPCGHCRYCLEGKYNICPDVDFMATQPNYRGALTHYLCHPESFTYKLPDNMDTMEGALVEPAAVGMHAAMLADVKPGKKIIILGAGCIGLMTLQACKCLGATEIAVVDVLEKRLAMAEQLGATVVINGAKEDTIARCQQFTEDMGADIVFETAGSAVTVKQAPYLVMRGGKIMIVGTVPGDSAINFLKINREVTIQTVFRYANRYPVTIEAISSGRFDVKSMVTHIYDYRDVQQAFEESVNNKRDIIKGVIKISD
Result: False

Problem: Same question for MTIHKKGQAHWEGDIKRGKGTVSTESGVLNQQPYGFNTRFEGEKGTNPEELIGAAHAACFSMALSLMLGEAGFTPTSIDTTADVSLDKVDAGFAITKIALKSEVAVPGIDASTFDGIIQKAKAGCPVSQVLKAEITLDYQLKS [P0C0L2] please.
Result: True

Problem: Try this sequence too: MTLTASSSSRAVTNSPVVVALDYHNRDDALAFVDKIDPRDCRLKVGKEMFTLFGPQFVRELQQRGFDIFLDLKFHDIPNTAAHAVAAAADLGVWMVNVHASGGARMMTAAREALVPFGKDAPLLIAVTVLTSMEASDLVDLGMTLSPADYAERLAALTQKCGLDGVVCSAQEAVRFKQVFGQEFKLVTPGIRPQGSEAGDQRRIMTPEQALSAGVDYMVIGRPVTQSVDPAQTLKAINASLQRSA
Result: False

---

# protocol.description: total protein half-life in vivo (active degradation + dilution); higher = more stable protein
# particulars: E. coli NCM3722 delta-clpP delta-lon delta-hslV; growth: N-lim chemostat; doubling time 6 h
Each record here notes measured total protein half-life in vivo.
The reply should be a number in h, with the unit left off.

Worked set:
INSERT INTO assay_data (sequence_data, measured_attribute, value_observed) VALUES
  ('MQLNKVLKGLMIALPVMAIAACSSNKNASNDGSEGMLGAGTGMDANGGNGNMSSEEQARLQMQQLQQNNIVYFDLDKYDIRSDFAQMLDAHANFLRSNPSYKVTVEGHADERGTPEYNISLGERRANAVKMYLQGKGVSADQISIVSYGKEKPAVLGHDEAAYSKNRRAVLVY [P0A912]', 'total protein half-life in vivo', 6.43),
  ('MSHLDNGFRSLTLQRFPATDDVNPLQAWEAADEYLLQQLDDTEIRGPVLILNDAFGALSCALAEHKPYSIGDSYISELATRENLRLNGIDESSVKFLDSTADYPQQPGVVLIKVPKTLALLEQQLRALRKVVTSDTRIIAGAKARDIHTSTLELFEKVLGPTTTTLAWKKARLINCTFNEPQLADAPQTVSWKLEGTDWTIHNHANVFSRTGLDIGARFFMQHLPENLEGEIVDLGCGNGVIGLTLLDKNPQAKVVFVDESPMAVASSRLNVETNMPEALDRCEFMINNALSGVEPFRFNAVLCNPPFHQQHALTDNVAWEMFHHARRCLKINGELYIVANRHLDYFHKLKKIFGNCTTIATNNKFVVLKAVKLGRRR', 'total protein half-life in vivo', 5.55);

Please examine the following record next.
Problem: For the sequence MSDNIRVGLIGYGYASKTFHAPLIAGTPGQELAVISSSDETKVKADWPTVTVVSEPKHLFNDPNIDLIVIPTPNDTHFPLAKAALEAGKHVVVDKPFTVTLSQARELDALAKSLGRVLSVFHNRRWDSDFLTLKGLLAEGVLGEVAYFESHFDRFRPQVRDRWREQGGPGSGIWYDLAPHLLDQAITLFGLPVSMTVDLAQLRPGAQSTDYFHAILSYPQRRVILHGTMLAAAESARYIVHGSRGSYVKYGLDPQEERLKNGERLPQEDWGYDMRDGVLTRVEGEERVEETLLTVPGNYPAYYAAIRDALNGDGENPVPASQAIQVMELIELGIESAKHRATLCLA , what total protein half-life in vivo is on record?
Result: 5.37

---

# protocol.description: total protein half-life in vivo (active degradation + dilution); higher = more stable protein
# particulars: E. coli NCM3722 delta-clpP; growth: N-lim chemostat; doubling time 6 h
Measured total protein half-life in vivo, listed per entry.

INSERT INTO results (sequence_data, measured_attribute, value_observed) VALUES
  ('MPLLKLWAGSLVMLAAVSLPLQAASPVKVGSKIDTEGALLGNIILQVLESHGVPTVNKVQLGTTPVVRGAITSGELDIYPEYTGNGAFFFKDENDAAWKNAQQGYEKVKKLDSEHNKLIWLTPAPANNTWTIAVRQDVAEKNKLTSLADLSRYLQEGGTFKLAASAEFIERADALPAFEKAYGFKLGQDQLLSLAGGDTAVTIKAAAQQTSGVNAAMAYGTDGPVAALGLQTLSDPQGVQPIYAPAPVVRESVLREYPQMAQWLQPVFASLDAKTLQQLNASIAVEGLDAKKVAADYLKQKGWTK', 'total protein half-life in vivo', '5 h');

Problem: Query (sequence): MNTTLFRWPVRVYYEDTDAGGVVYHASYVAFYERARTEMLRHHHFSQQALMAERVAFVVRKMTVEYYAPARLDDMLEIQTEITSMRGTSLVFTQRIVNAENTLLNEAEVLVVCVDPLKMKPRALPKSIVAEFKQ [P0A8Z3] ; field requested: total protein half-life in vivo
Result: 6.54 h
